testDetails: NCI Yeast Anticancer Drug Screen. Data for the mec2-1 strain (AID 157)
conditionLabel: S. cerevisiae mec2-1 strain, at 1.2 µM, active compounds read high
Compounds without any hit were thinned out: in the full panel of roughly 79,000, 15% have a hit.
metric: growth inhibition (%)
Write down the numeric answer in % and omit the unit.

Solved cases (2 shown):
>>> datavalue("C/C(=N\\NC(=S)N1CCCCC1)c1cccc(C)n1")
39
>>> datavalue("O=Nc1c(NO)ccc2nn(-c3ccccc3)nc12")
9

Reported growth inhibition for `O=C1c2ccccc2-c2nc3ccccc3nc21` : what is it?
-79

Reported growth inhibition for `COc1ccc2ccc3ccccc3c2c1C=O` : what is it?
-6

Reported growth inhibition for `CC[C@@]1(O)C(=O)OCc2c1cc1n(c2=O)Cc2cc3c(CN(C)C)c(O)ccc3nc2-1` : what is it?
-2

----------
testDetails: NCI Yeast Anticancer Drug Screen. Data for the sgs1 strain (AID 173);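 note: 0% = growth of vehicle-only control cultures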
conditionLabel: S. cerevisiae sgs1 mutant, at 11.0 µM
The panel holds about 79,000 compounds, 15% with a hit somewhere; the sample as a whole holds those more often. Calls of active or inactive are those of the source. Rule as the data show it: active = growth inhibition above about 70%; inactive = the rest.
Mark one answer only. Choices: active, inactive

Worked examples follow.
>>> discretelabel("CCC(=O)OCCn1c2nc(=O)[nH]c(=O)c-2nc2cc(C)c(C)cc21")
"inactive"
>>> discretelabel("NNC(=O)CCc1ccc2ccc3ccccc3c2c1")
"inactive"
>>> discretelabel("COC1=CC(=O)C2C(C1=O)C(c1ccc(Cl)cc1)[C@@H]2C (stereo not given in full)")
"active"
>>> discretelabel("O=C(O)CNc1ccc(Cl)c(Cl)c1")
"inactive"
>>> discretelabel("CCN(CC)CC(O)c1ccc2ccc3ccccc3c2c1 (stereo not given)")
"inactive"

GET /call?item= OCC1OC(OCC(O)C(O)C(O)C(/C=N/Nc2ccccc2)=N/Nc2ccccc2)C(O)C(O)C1O (stereo not given) returns the recorded outcome of this test.
inactive

GET /call?item= `O=C1c2cc([N+](=O)[O-])ccc2-c2cccc(F)c21` returns the recorded outcome of this test.
inactive

GET /call?item= Nc1ccn(C2OC(CO)C3[O][Sn]([c]4ccccc4)([c]4ccccc4)[O]C32)c(=O)n1 (stereo not given) returns the recorded outcome of this test.
inactive

GET /call?item= `CCCCOC(=O)N[C@H]1CCc2cc(OC)c(OC)c(OC)c2-c2ccc(SC)c(=O)cc21` returns the recorded outcome of this test.
inactive

GET /call?item= `CCCCCCc1cc(C(=O)OC/C(C)=N/NC(N)=O)c2ccccc2n1` returns the recorded outcome of this test.
inactive

GET /call?item= `Nc1ccc2c(c1)C(=O)c1cccc(N)c1C2=O` returns the recorded outcome of this test.
inactive

GET /call?item= `O=[N+]([O-])c1cc(CCl)ccc1CCl` returns the recorded outcome of this test.
active

GET /call?item= CCC(C)COC(=O)c1ccc(N=Cc2ccc(C=Nc3ccc(C(=O)OCC(C)CC)cc3)cc2)cc1 (stereo not given) returns the recorded outcome of this test.
inactive

GET /call?item= `C[Si](C)(C)CNC(=O)OCc1ccccc1` returns the recorded outcome of this test.
inactive

GET /call?item= COC1C=COC2(C)Oc3c(C)c(O)c4c(c3C2=O)/C(=N/C2CCC(O)OC2C)C=C(NC(=O)/C(C)=C\C(=O)C2CC2C(O)C(C)C(O)C(C)C(OC(C)=O)C1C)C4=O (stereo not given) returns the recorded outcome of this test.
inactive

GET /call?item= `CC(=O)SCCC[Si](C)(C)CCCSC(C)=O` returns the recorded outcome of this test.
inactive

GET /call?item= Cc1cccc2c(C(O)CBr)cc(-c3ccc(Cl)cc3)nc12 (stereo not given) returns the recorded outcome of this test.
active

GET /call?item= CC(C(=O)N1C(=O)N(C(=O)[C@H](C)C(O)c2ccccc2)[C@H](c2ccccc2)[C@H]1c1ccccc1)[C@@H](O)c1ccccc1 (stereo not given in full) returns the recorded outcome of this test.
inactive

GET /call?item= O=C1OC(=O)C2CCCC3CCCC1C32 (stereo not given) returns the recorded outcome of this test.
active

GET /call?item= `S=C(S)NN1CCOCC1` returns the recorded outcome of this test.
inactive

GET /call?item= `CC(C)c1cc(C(C)C)c(O)c(C([O-])[O-])c1.CC(C)c1cc(C(C)C)c(O)c(C([O-])[O-])c1.CC(C)c1cc(C(C)C)c(O)c(C([OH2+])[OH2+])c1.CC(C)c1cc(C(C)C)c(O)c(C([OH2+])[OH2+])c1.[Cu+2].[Cu+2].[OH3+].[OH3+]` returns the recorded outcome of this test.
inactive

GET /call?item= `CCCS(=O)(=O)Nc1ccc(Nc2c3ccccc3nc3ccccc23)c(OC)c1` returns the recorded outcome of this test.
inactive

GET /call?item= `O=[N+]([O-])c1ccc([N+]2=NC(c3ccccc3)=NN(c3ccccc3)C2)cc1` returns the recorded outcome of this test.
inactive

GET /call?item= `O=C1c2ccccc2C(=O)c2c(NC3CCCCC3)ccc(Nc3ccc(S(=O)(=O)O)cc3)c21` returns the recorded outcome of this test.
inactive

----------
testDetails: NCI Yeast Anticancer Drug Screen. Data for the rad50 strain (AID 155);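 note: 0% = growth of vehicle-only cultures of the same strain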
conditionLabel: S. cerevisiae rad50 strain growth inhibition; at 3.7 µM; active compounds read high
This is part of a sample that, as a whole, favours compounds with a hit. Of some 79,000 tested, about 15% had one in any assay. Calls of active or inactive are those of the source. Rule as the data show it: active = growth inhibition above about 70%; inactive = the rest.
Parameter growth inhibition: see the listing below.

Solved cases (4 shown):
>>> datavalue("O=C1CSC(/C=C/c2ccccc2)N1c1ccc(-c2ccc(-n3c(-c4ccccc4)nc4ccccc4c3=O)cc2)cc1 (stereo unspecified)")
"3% (inactive)"
>>> datavalue("O=Cc1cccc2ccc3ccccc3c12")
"-12% (inactive)"
>>> datavalue("C[S+](C)C1(c2ccccc2)C(=O)c2ccccc2C1=O")
"7% (inactive)"
>>> datavalue("NNc1c(F)c(F)cc(F)c1F")
"-22% (inactive)"

Reported growth inhibition for `CC(C)C1=CC2=C[C@H](O)[C@H]3C(C)(C)CCC[C@]3(C)C2=C(O)C1=O` : what is it?
13% (inactive)

Reported growth inhibition for `CCOC(=O)c1cnc2cc(C(F)(F)F)ccc2c1N=[N+]=[N-]` : what is it?
25% (inactive)

Reported growth inhibition for CC1(C)C(=O)OC(n2cc(F)c(=O)[nH]c2=O)C1=O (stereo unspecified) : what is it?
-10% (inactive)

Reported growth inhibition for `[N-]=N[N+]#I1OC(C(F)(F)F)(C(F)(F)F)c2ccccc21` : what is it?
90% (active)

Reported growth inhibition for O=[N+]([O-])c1ccc2c(c1)C(N1CCN(CCO)CC1)Cc1ccc(F)cc1S2 (stereo unspecified) : what is it?
1% (inactive)

Reported growth inhibition for `COc1ccc(Br)c(C(=O)Sc2nnnn2-c2cccc(Cl)c2)c1` : what is it?
21% (inactive)

Reported growth inhibition for `Cc1ccc(CCC2=CCCc3c2ccc2ccccc32)cc1` : what is it?
-2% (inactive)

----------
Parameter growth inhibition: see the listing below.
testDetails: NCI Yeast Anticancer Drug Screen. Data for the cln2 rad14 strain (AID 165);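 note: 0% = growth equal to vehicle treated cultures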
conditionLabel: S. cerevisiae cln2 rad14 strain, at 5.0 µM (retest, dose inferred, filed as 0.5), active compounds read high
About 79,000 compounds went through this panel and 15% of them were active in at least one assay; those are over-represented in the sample as a whole.
Write down the numeric answer in % and omit the unit.

>>> datavalue("CCOP(=O)(OCC)C(Cc1ccccc1)N=C(c1ccccc1)c1ccccc1 (stereo unspecified)")
-1
>>> datavalue("CCC/C(Cl)=N\\OC(=O)Nc1ccc(Br)cc1")
-22
>>> datavalue("Cn1c(=O)c(-c2ccccc2)c(N=[N+]=[N-])c2ccccc21")
23

Reported growth inhibition for `O=C(Nc1ccc(Cl)cc1)OCC#CCCl` : what is it?
5

Reported growth inhibition for `CC(/C=C/c1ccc(Cl)cc1)=N\NC(=S)NCC(C)C` : what is it?
3

Reported growth inhibition for `Cn1c(=O)c2ccccc2c2ccccc21` : what is it?
-54

----------
testDetails: NCI Yeast Anticancer Drug Screen. Data for the rad52 strain (AID 147);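 note: 0% = growth of vehicle-treated control cultures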
conditionLabel: S. cerevisiae rad52 mutant growth inhibition; at 33.0 µM
The panel holds about 79,000 compounds, 15% with a hit somewhere; the sample as a whole holds those more often. Activity calls are given as the source filed them. No stated cut-off is given here; in the data, active means growth inhibition above about 70%; inactive means the rest.
Mark one answer only. Choices: active, inactive

>>> discretelabel("O=C(c1ccc(Cl)cc1Cl)C(Cl)Cl")
"active"
>>> discretelabel("Cc1nc(-[n+]2nc(-c3ccncc3)nn2-c2ccccc2)sc1C")
"inactive"

GET /call?item= C/C(=N\O)C1CC2C=C(C#N)C1N(Cc1ccccc1)C2 (configuration not stated) returns the recorded outcome of this test.
inactive

GET /call?item= `COC(=O)c1cc(-c2ccc(C)cc2)[nH]c(=O)c1C#N` returns the recorded outcome of this test.
inactive

GET /call?item= `BrCC[P+](c1ccccc1)(c1ccccc1)c1ccccc1` returns the recorded outcome of this test.
active

GET /call?item= `C[S+](C)C1(c2ccccc2)C(=O)c2ccccc2C1=O` returns the recorded outcome of this test.
inactive
